Molecular target: Thrombin (Homo sapiens, UniProt P00734)
Test: thrombin inhibition activity assay (D.4), specific activity
Format: biochemical
Settings: before PEG modification; activity relative to wild type PN-1
The reader will find reported REL TO WT, BEFORE PEG MODIFICATION values listed item by item below.
parameter: REL TO WT, BEFORE PEG MODIFICATION

>  <molecule>
S263C (conjugate, UniProt P07093 20-398, looked up, variant S263C, PEG) Glia-derived nexin: SHFNPLSLEELGSNTGIQVFNQIVKSRPHDNIVISPHGIASVLGMLQLGADGRTKKQLAMVMRYGVNGVGKILKKINKAIVSKKNKDIVTVANAVFVKNASEIEVPFVTRNKDVFQCEVRNVNFEDPASACDSINAWVKNETRDMIDNLLSPDLIDGVLTRLVLVNAVYFKGLWKSRFQPENTKKRTFVAADGKSYQVPMLAQLSVFRCGSTSAPNDLWYNFIELPYHGESISMLIALPTESSTPLSAIIPHISTKTIDSWMCIMVPKRVQVILPKFTAVAQTDLKEPLKVLGITDMFDSSKANFAKITTGSENLHVSHILQKAKIEVSEDGTKASAATTAILIARSSPPWFIVDRPFLFFIRHNPTGAVLFMGQINKP

>  <parameter>
REL TO WT, BEFORE PEG MODIFICATION

>  <reported.value>
0.1

$$$$
>  <molecule>
S1C (conjugate, UniProt P07093 20-398, looked up, variant S1C, PEG) Glia-derived nexin: CHFNPLSLEELGSNTGIQVFNQIVKSRPHDNIVISPHGIASVLGMLQLGADGRTKKQLAMVMRYGVNGVGKILKKINKAIVSKKNKDIVTVANAVFVKNASEIEVPFVTRNKDVFQCEVRNVNFEDPASACDSINAWVKNETRDMIDNLLSPDLIDGVLTRLVLVNAVYFKGLWKSRFQPENTKKRTFVAADGKSYQVPMLAQLSVFRCGSTSAPNDLWYNFIELPYHGESISMLIALPTESSTPLSAIIPHISTKTIDSWMSIMVPKRVQVILPKFTAVAQTDLKEPLKVLGITDMFDSSKANFAKITTGSENLHVSHILQKAKIEVSEDGTKASAATTAILIARSSPPWFIVDRPFLFFIRHNPTGAVLFMGQINKP

>  <parameter>
REL TO WT, BEFORE PEG MODIFICATION

>  <reported.value>
0.20

$$$$
